These measurements were taken from PubChem BioAssay (NCI).

system: MDA-MB-468 breast; experiment: NCI-60 one-dose screen, 48 h; conditions: 10 µM unless noted
The panel holds about 83,000 compounds, 20% with a hit somewhere; the sample as a whole holds those more often. Calls of active or inactive are those of the source. Rule for the calls: active = growth percent below 10; inactive = the rest.
Hi there, use one of these labels in your reply, thanks! active, inactive

Query string: Assay outcome for COC(=O)c1c2c(c(C)[n+]([O-])c1C)C(=O)C(NCc1ccccc1)=CC2=O : what was it?
Result string: active

Query string: Repeat for the following molecule: CCOC(=O)c1cnc2c(C)cc(C)cc2c1NCCCN(C)C
Result string: inactive

Query string: Repeat for the following molecule: CC[C@@H]1O[C@H](O[C@@H](c2cnc[nH]2)[C@H](NC(=O)c2nc([C@H](CC(N)=O)NC[C@@H](N)C(N)=O)nc(N)c2C)C(=O)N[C@H](C)[C@H](O)[C@H](C)C(=O)N[C@@H](C(=O)NCCc2nc(-c3nc(C(=O)NCCCCN=C(N)N)cs3)cs2)[C@@H](C)O)[C@H](O[C@@H]2O[C@H](CO)[C@H](O)[C@H](OC(N)=O)[C@@H]2O)[C@H](C)[C@@H]1C
Result string: inactive

Query string: Repeat for the following molecule: COc1ccc2nc(NC(=O)/C(=C/c3cc(OC)c(OC)c(OC)c3)c3ccc(OC)c(OC)c3)sc2c1
Result string: inactive
